STUDY_TARGET: Substance-P receptor (Homo sapiens)
Sequence (P25103 whole entry): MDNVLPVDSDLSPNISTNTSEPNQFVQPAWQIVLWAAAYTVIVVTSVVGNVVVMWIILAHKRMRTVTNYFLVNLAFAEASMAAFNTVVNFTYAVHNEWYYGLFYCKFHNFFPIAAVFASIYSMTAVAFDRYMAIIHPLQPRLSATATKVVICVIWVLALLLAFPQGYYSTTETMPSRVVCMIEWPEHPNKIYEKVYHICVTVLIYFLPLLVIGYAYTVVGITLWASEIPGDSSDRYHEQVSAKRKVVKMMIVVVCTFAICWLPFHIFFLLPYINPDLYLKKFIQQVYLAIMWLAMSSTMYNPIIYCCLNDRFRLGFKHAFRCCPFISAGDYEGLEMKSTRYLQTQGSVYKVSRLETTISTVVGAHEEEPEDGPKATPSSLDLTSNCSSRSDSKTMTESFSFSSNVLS
TEST_DESCRIPTION: Binding affinity against human Tachykinin receptor 1 expressed in CHO cells was measured by its ability to displace [125I]- Tyr-8 substance P.
Assay type: cell-based
pIC50: −log10 of the molar value.
EXPERIMENTAL_ENDPOINT: pIC50

* O=C(CCCN1CCCC1)N[C@@H](Cc1c[nH]c2ccccc12)C(=O)CCc1cc(C(F)(F)F)cc(C(F)(F)F)c1 | 9.52
* O=C(Cc1cnc[nH]1)N[C@@H](Cc1c[nH]c2ccccc12)C(=O)CCc1cc(C(F)(F)F)cc(C(F)(F)F)c1 | 8.42
* FC(F)(F)c1cccc(CO[C@H]2C3CCN(CC3)[C@H]2C(c2ccccc2)c2ccccc2)c1 | 7.28
* CN(C)CCCCC(=O)N[C@@H](Cc1c[nH]c2ccccc12)C(=O)CCc1cc(C(F)(F)F)cc(C(F)(F)F)c1 | 9.22
* CC(=O)N[C@H](COCc1cc(C)cc(C)c1)Cc1c[nH]c2ccccc12 | 6.12
* O=C(CCCN1CCOCC1)N[C@@H](Cc1c[nH]c2ccccc12)C(=O)CCc1cc(C(F)(F)F)cc(C(F)(F)F)c1 | 9.77
